All values here come from PubChem BioAssay (NCI).

# Tested on: RPMI-8226 leukemia
# TEST_SUMMARY: NCI-60 one-dose screen, 48 h (100 = growth as untreated, 0 = no growth, -100 = all killed)
# CONDITION_PARAMETERS: 10 µM unless noted
About 83,000 compounds went through this panel and 20% of them were active in at least one assay; those are over-represented in the sample as a whole.
QUANTITY_NAME: growth (%)
Express the result in % but write the number alone.

Provide one value: measured growth of "C[C@]12CCc3nc(Nc4ccc(O)cc4)sc3C1=CC[C@@H]1[C@@H]2CC[C@]2(C)/C(=N/NC(N)=S)CC[C@@H]12"
-16.3

Provide one value: measured growth of "O=C(Cn1nncc1CN1C(=O)CSC1=O)Nc1ccc(F)cc1"
104

Provide one value: measured growth of "CCOc1cccc(/C=N/NC(=O)Cc2ccc(Nc3ccnc(C(F)(F)F)c3)cc2)c1O"
4.35

Provide one value: measured growth of Clc1ncnc2scc(C3COc4ccccc4O3)c12 (stereo not given)
95.7

Provide one value: measured growth of "COc1ccc([C@@H]2[C@@H](Cl)C(=O)N2c2cc(OC)c(OC)c(OC)c2)cc1C"
8.48
